Where these numbers come from: patent US20150105252A1

System: crabgrass, large
Assay: Test A postemergence
Type: in vivo, Digitaria sanguinalis
Details: postemergence, 125 g ai/ha, about 10 days, visual rating on 0 to 100 scale (0 no effect, 100 complete control)
Please go through the items and note down their Crabgrass, Large plant response rating.
One number for each entry.

Respectfully, I request Crabgrass, Large plant response rating for each entry included below.
1. CCCNC(=O)c1cc(CC)n(Cc2cccc(C(F)(F)F)n2)n1
2. Cc1cc(C(=O)Nc2ccc(F)cc2)nn1Oc1ccnc(C(F)(F)F)c1
3. O=C(NC1CC1)c1cc(CCCl)n(Cc2ccnc(C(F)(F)F)c2)n1
4. CCCc1cc(C(=O)Nc2ccc(F)cc2)nn1Oc1ccnc(C(F)(F)F)c1
5. Cc1cc(C(=O)NCC(F)(F)C(F)(F)F)nn1Cc1cccc(OC(F)(F)F)c1

Reply:
[0, 0, 90, 0, 10]
